All values here come from the Immune Epitope Database (IEDB).

system: HLA-B*15:01
protocol details: IEDB peptide-MHC binding, purified MHC/competitive/fluorescence; bounds were set here for any values at or beyond the usual limits of such assays
experimental context: source organism: Sudan ebolavirus
readout label: IC50 (µM)
Give the quantity in µM, number only.

Exam item: Entry `ILFQKAFSM` has what IC50?
Marked response: 4.24

---

system: HLA-A*03:01
protocol details: IEDB peptide-MHC binding, purified MHC/competitive/radioactivity; filed as Kd, often an IC50 or EC50 that approximates it; bounds were set here for any values at or beyond the usual limits of such assays
experimental context: source organism: Triticum aestivum
readout label: Kd
Could you kindly put the unit after your number?

Exam item: Entry `NVVHAIILH` , system HLA-A*03:01: what Kd was measured?
Marked response: 19.5 µM
